- Test system: DMS-273
- assay-procedure: NCI tumour cell line growth inhibition, 48 h
The source made the active and inactive calls. Cut-off read from the data, not from the text of the source: active = GI50 up to about 1.1 µM and inactive = higher.
Hi! Could you answer with just one of these? T = active, F = inactive

{"columns": ["molecule", "label-value"],
 "data": [
  ["CC(=O)OCc1cc(OC(C)=O)cnc1COC(C)=O", "F"],
  ["O=c1[nH]c(Br)nc2c(Br)c[nH]c12", "F"],
  ["COc1cccc2c1C(=N)c1c(O)c3c(c(O)c1C2=O)C[C@@](O)(C(C)=O)C[C@@H]3OC1CC(N)C(O)C(C)O1 (some centres not stated)", "T"],
  ["COc1cc(O)c(Cc2ccccc2O)c(O)c1C(=O)CCc1ccccc1 [UVARETIN]", "F"],
  ["CCOC(=O)C(CC/C=C\\c1ccccc1)N1CCC[C@H]1C(=O)OC (some centres not stated)", "F"]
]}

input: // param item: Cc1cc(C)c(S(=O)(=O)ONC(=O)OC(C)(C)C)c(C)c1 ; yields the recorded call
output: F

input: // param item: C[Si](C)(C)/C=C/CCC(C=O)(CCCl)c1ccccc1 (configuration not stated) ; yields the recorded call
output: F

input: // param item: Oc1ccc([Te]CCNCC[Te]c2ccc(O)cc2)cc1 ; yields the recorded call
output: F

input: // param item: COC(=O)C1(C(=O)OC)CC(=O)c2cc3c(cc2-c2c(cc(OC)c(OC)c2OC)C1)OCO3 ; yields the recorded call
output: F

input: // param item: O=[N+]([O-])c1ccc(C[P+](c2ccccc2)(c2ccccc2)c2ccccc2)cc1 ; yields the recorded call
output: F

input: // param item: Cc1ccc(C)c(NC(=O)CC2C(=O)Nc3ccccc3S2(=O)=O)c1 (configuration not stated) ; yields the recorded call
output: F

input: // param item: Cc1ccc(NC(=O)/C(=N\NC(N)=S)C(C#N)c2ccccc2C)cc1C (configuration not stated) ; yields the recorded call
output: F

---

I'd be grateful if you could share measured GI50 for these entries.
- System: SNB-19
- assay-procedure: NCI tumour cell line growth inhibition, 48 h
Active and inactive are the calls of the source. Cut-off read from the data, not from the text of the source: active = GI50 up to about 1.1 µM and inactive = higher.

Examples with their reported GI50 follow.
{"columns": ["compound", "GI50"],
 "data": [
  ["Oc1ccc([Te]CCNCC[Te]c2ccc(O)cc2)cc1", "40.9 µM (inactive)"],
  ["COC(=O)c1cc(O)ccc1O [METHYL 2,5-DIHYDROXYBENZOATE]", "> 100 µM (inactive)"]
]}

// for each compound in input: emit GI50
1. Cc1ccc(-c2c(C#N)c(S)n(NS(=O)(=O)c3ccccc3)c(=O)c2C#N)cc1
2. C1OC1C1CO1 (stereo unspecified)
3. CC(C)(C)C(=O)CC1=Nc2ccccc2SC1(O)CC(=O)C(C)(C)C (stereo unspecified)
4. CCC1(CCSC(=N)N)C(=O)NC(=O)NC1=O
5. S=C1CC(c2ccc(Cl)cc2)Sc2ccccc2N1 (stereo unspecified)
6. CCc1cccc(C(C)C)c1NC(=O)C(=O)C(Cc1nc2ccccc2nc1O)C(=O)OC (stereo unspecified)

output:
1: 31.5 µM (inactive); 2: > 100 µM (inactive); 3: 35.6 µM (inactive); 4: > 100 µM (inactive); 5: 27.8 µM (inactive); 6: > 100 µM (inactive)

// for each compound in input: emit GI50
1. COC(C/C(=C/CO[Si](C(C)C)(C(C)C)C(C)C)C(=O)N(C(=O)OC(C)(C)C)c1ccccc1I)OC
2. CC(C)(C)c1cc(C2NC(=O)NC2=O)cc(C(C)(C)C)c1O (stereo unspecified)
3. C/N=C(\NC(=S)N(C)C)N(C)C

output:
1: 56.4 µM (inactive); 2: > 100 µM (inactive); 3: > 100 µM (inactive)
